- assay-protocol: The drug is tested on WLS-370 corresponding to human gut metagenome with ENA study accession number: PRJEB37062 and ENA sample accession number: ERS12561793 for biotransformation under anaerobic condition. The drug concentrations were measured over 9 timepoints collected between 0 and 24 hours of incubation by liquid-chromatography-coupled mass spectrometry (LC–MS); note: call rule not given here
- test-context: 2 µM

compound | Bacterial Biotransformation
CN1CCC[C@@H]1CCO[C@](C)(c1ccccc1)c1ccc(Cl)cc1.O=C(O)/C=C/C(=O)O [CLEMASTINE FUMARATE] | Compound metabolized
CC(CCc1ccccc1)NCC(O)c1ccc(O)c(C(N)=O)c1 (configuration not stated) | Compound NOT metabolized
CC(C)(C)NCC(O)COc1cccc2c1CC(O)C(O)C2 (configuration not stated) | Compound NOT metabolized
CCCN(CCC)CCc1cccc2c1CC(=O)N2 | Compound NOT metabolized
O=C1N=C([O-])NC1(c1ccccc1)c1ccccc1.[Na+] [PHENYTOIN SODIUM] | Compound metabolized
CCN1CCCC1CNC(=O)c1cc(S(=O)(=O)CC)c(N)cc1OC (configuration not stated) [AMISULPRIDE] | Compound NOT metabolized
CCCCC(=O)O[C@]1(C(=O)CO)[C@@H](C)C[C@H]2[C@@H]3CCC4=CC(=O)C=C[C@]4(C)[C@@]3(F)[C@@H](O)C[C@@]21C [BETAMETHASONE VALERATE] | Compound NOT metabolized
CC#CCn1c(N2CCC[C@@H](N)C2)nc2c1c(=O)n(Cc1nc(C)c3ccccc3n1)c(=O)n2C | Compound NOT metabolized
N=C(N)NC(=O)Cc1c(Cl)cccc1Cl | Compound NOT metabolized
CN(C)CCOC(c1ccc(Cl)cc1)c1ccccn1.O=C(O)/C=C\C(=O)O (configuration not stated) [CARBINOXAMINE MALEATE] | Compound NOT metabolized
O=C1CC2(CCCC2)CC(=O)N1CCCCN1CCN(c2ncccn2)CC1 | Compound NOT metabolized
CCS(=O)(=O)CCn1c([N+](=O)[O-])cnc1C | Compound metabolized
CN(CCOc1ccc(CC2SC(=O)NC2=O)cc1)c1ccccn1.O=C(O)/C=C\C(=O)O (configuration not stated) [ROSIGLITAZONE MALEATE] | Compound metabolized
COC(=O)C(c1ccccc1)C1CCCCN1 (configuration not stated) [METHYLPHENIDATE] | Compound NOT metabolized
CC(C)C[C@H]1C(=O)N2CCC[C@H]2[C@]2(O)O[C@](NC(=O)[C@@H]3C=C4c5cccc6[nH]c(Br)c(c56)C[C@H]4N(C)C3)(C(C)C)C(=O)N12.CS(=O)(=O)O [BROMOCRIPTINE MESYLATE] | Compound metabolized
C#C[C@]1(OC(C)=O)CC[C@H]2[C@@H]3CCC4=C/C(=N/O)CC[C@@H]4[C@H]3CC[C@@]21CC [NORGESTIMATE] | Compound NOT metabolized
O=C(CCCN1CCC2(CC1)C(=O)NCN2c1ccccc1)c1ccc(F)cc1 | Compound NOT metabolized
CC(C)NCC(O)COc1ccc(CC(N)=O)cc1 (configuration not stated) | Compound NOT metabolized
OCCN(CCO)c1nc(N2CCCCC2)c2nc(N(CCO)CCO)nc(N3CCCCC3)c2n1 | Compound metabolized
C#C[C@]1(OC(C)=O)CC[C@H]2[C@@H]3CCC4=C[C@@H](OC(C)=O)CC[C@@H]4[C@H]3CC[C@@]21C [ETHYNODIOL DIACETATE] | Compound metabolized
CC(C)(C)N.CCC[C@H](N[C@@H](C)C(=O)N1[C@H](C(=O)O)C[C@@H]2CCCC[C@@H]21)C(=O)OCC | Compound metabolized
CCOc1cc(CC(=O)N[C@@H](CC(C)C)c2ccccc2N2CCCCC2)ccc1C(=O)O [REPAGLINIDE] | Compound metabolized
COc1ccnc(C[S+]([O-])c2nc3ccc(OC(F)F)cc3[nH]2)c1OC (configuration not stated) | Compound metabolized
CC(=O)Nc1ccc(OC(C)=O)cc1 [DIACETAMATE] | Compound metabolized
Nc1nc(N)nc(-c2cc(Cl)ccc2Cl)n1.O=C(O)/C=C\C(=O)O [IRSOGLADINE MALEATE] | Compound NOT metabolized
CCc1oc2ccccc2c1C(=O)c1cc(Br)c(O)c(Br)c1 | Compound NOT metabolized
COc1ccc(Cc2nccc3cc(OC)c(OC)cc23)cc1OC | Compound metabolized
CC(C)(C)NC[C@H](O)COc1nsnc1N1CCOCC1.O=C(O)/C=C\C(=O)O [TIMOLOL MALEATE] | Compound NOT metabolized
CCCCCNC(=N)N/N=C/c1c[nH]c2ccc(OC)cc12.O=C(O)/C=C\C(=O)O [TEGASEROD MALEATE] | Compound NOT metabolized
CC1=C(CC(=O)O)c2cc(F)ccc2/C1=C\c1ccc([S+](C)[O-])cc1 (configuration not stated) | Compound metabolized
CC(=O)OCC(=O)[C@@]1(OC(C)=O)[C@@H](C)C[C@H]2[C@@H]3C[C@H](F)C4=CC(=O)C=C[C@]4(C)[C@@]3(F)[C@@H](O)C[C@@]21C [DIFLORASONE DIACETATE] | Compound metabolized
CC(=O)O[C@]1(C(C)=O)CC[C@H]2[C@@H]3C=C(C)C4=CC(=O)CC[C@]4(C)[C@H]3CC[C@@]21C [MEGESTROL ACETATE] | Compound metabolized
